Entry source: ChEMBL document CHEMBL2074434

- target: ATP-dependent translocase ABCB1 (Mus musculus, UniProt P21447)
- Sequence (P21447 whole entry): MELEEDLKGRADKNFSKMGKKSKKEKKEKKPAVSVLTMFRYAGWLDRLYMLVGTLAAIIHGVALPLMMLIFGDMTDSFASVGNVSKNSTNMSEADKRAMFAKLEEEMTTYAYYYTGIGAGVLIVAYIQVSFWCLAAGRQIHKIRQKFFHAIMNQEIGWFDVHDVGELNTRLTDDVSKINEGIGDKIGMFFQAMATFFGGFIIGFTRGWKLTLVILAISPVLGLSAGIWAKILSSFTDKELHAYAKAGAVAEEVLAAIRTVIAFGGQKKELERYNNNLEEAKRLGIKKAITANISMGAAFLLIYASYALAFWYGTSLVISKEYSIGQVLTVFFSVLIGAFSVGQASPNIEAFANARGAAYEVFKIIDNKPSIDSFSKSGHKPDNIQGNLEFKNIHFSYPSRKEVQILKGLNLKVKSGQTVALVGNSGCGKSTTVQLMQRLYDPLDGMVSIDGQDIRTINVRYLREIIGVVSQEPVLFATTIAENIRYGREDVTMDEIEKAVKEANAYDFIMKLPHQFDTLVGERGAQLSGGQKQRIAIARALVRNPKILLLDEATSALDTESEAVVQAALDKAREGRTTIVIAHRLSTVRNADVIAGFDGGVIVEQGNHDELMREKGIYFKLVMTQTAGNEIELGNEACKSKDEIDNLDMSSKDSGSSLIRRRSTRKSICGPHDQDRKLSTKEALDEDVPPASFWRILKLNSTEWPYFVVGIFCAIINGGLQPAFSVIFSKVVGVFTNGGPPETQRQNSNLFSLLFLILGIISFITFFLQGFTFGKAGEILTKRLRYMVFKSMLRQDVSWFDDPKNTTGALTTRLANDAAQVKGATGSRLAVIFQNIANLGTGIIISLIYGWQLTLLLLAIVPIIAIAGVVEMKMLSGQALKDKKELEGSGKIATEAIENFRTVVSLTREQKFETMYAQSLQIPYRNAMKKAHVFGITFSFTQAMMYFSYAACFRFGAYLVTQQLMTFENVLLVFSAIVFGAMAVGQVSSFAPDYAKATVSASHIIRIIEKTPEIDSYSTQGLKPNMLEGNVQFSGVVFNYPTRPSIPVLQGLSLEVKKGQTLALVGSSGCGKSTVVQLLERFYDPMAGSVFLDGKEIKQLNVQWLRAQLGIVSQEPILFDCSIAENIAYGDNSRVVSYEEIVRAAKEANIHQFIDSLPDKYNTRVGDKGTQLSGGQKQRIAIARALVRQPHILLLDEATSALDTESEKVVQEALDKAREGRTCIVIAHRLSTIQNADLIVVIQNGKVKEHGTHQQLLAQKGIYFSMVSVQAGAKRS
- assay comment: TP_TRANSPORTER: increase in Calcein-AM intracellular accumulation in mdr1a-expressing LLC-PK1 cells
Listed compounds paired with reported pKi
In simple prose, pKi is minus the logarithm base ten of a concentration in moles per litre.

CC(C)C[C@H]1C(=O)N2CCC[C@H]2[C@]2(O)O[C@](NC(=O)[C@@H]3C=C4c5cccc6[nH]cc(c56)C[C@H]4N(C)C3)(C(C)C)C(=O)N12    4.36
CC(C)[C@H]1C(=O)N2CCC[C@H]2[C@]2(O)O[C@](NC(=O)[C@@H]3C=C4c5cccc6[nH]cc(c56)C[C@H]4N(C)C3)(C(C)C)C(=O)N12    3.57

# evaluate next
In plain terms, `COC(=O)[C@H]1[C@H]2C[C@@H]3c4[nH]c5cc(OC)ccc5c4CCN3C[C@H]2C[C@@H](OC(=O)c2cc(OC)c(OC)c(OC)c2)[C@@H]1OC` has a documented pKi of 5.39
